What CLint scaled was measured for each of the following?
assay name: in vitro
assay setup: mouse, liver microsomes
Description: Metabolic stability in mouse liver microsomes assessed as clearance
The figure you give is taken to be in mL/min/kg; do not add the unit.

Please look up its CLint scaled: "CO[C@@H]1O[C@H](CNC(=O)c2ccc(S(N)(=O)=O)cc2)[C@@H](O)[C@H](O)[C@H]1N"
1.64

For the molecule shown here, "CO[C@@H]1O[C@H](CNC(=O)c2ccc(S(N)(=O)=O)cc2)[C@@H](O)[C@H](O)[C@H]1O" , give the reported CLint scaled.
1.56

Which CLint scaled value belongs to "CCO[C@@H]1O[C@H](CNC(=O)c2ccc(S(N)(=O)=O)cc2)[C@@H](O)[C@H](O)[C@H]1O" ?
1.54

Give the measured CLint scaled of "CCCO[C@@H]1O[C@H](CNC(=O)c2ccc(S(N)(=O)=O)cc2)[C@@H](O)[C@H](O)[C@H]1O" .
1.53

Value lookup for CLint scaled; key = "CCO[C@@H]1O[C@H](CNC(=O)c2ccc(S(N)(=O)=O)cc2)[C@@H](O)[C@H](O)[C@@H]1O"
1.48

Look up CLint scaled for this molecule: "CO[C@@H]1O[C@H](CNC(=O)c2ccc(S(N)(=O)=O)cc2)[C@H](O)[C@H](O)[C@H]1O"
1.52

Given the entry "CCO[C@@H]1O[C@H](CNC(=O)c2ccc(S(N)(=O)=O)cc2)[C@H](O)[C@H](O)[C@H]1O" , report its measured CLint scaled.
1.5

What measured CLint scaled goes with "CCCO[C@@H]1O[C@H](CNC(=O)c2ccc(S(N)(=O)=O)cc2)[C@@H](O)[C@H](O)[C@H]1N" ?
1.42

Report CLint scaled for "CCCO[C@@H]1O[C@H](CNC(=O)c2ccc(S(N)(=O)=O)cc2)[C@@H](O)[C@H](O)[C@@H]1O" please.
1.42

Could you share which CLint scaled value was measured for "CCCO[C@@H]1O[C@H](CNC(=O)c2ccc(S(N)(=O)=O)cc2)[C@H](O)[C@H](O)[C@H]1O" ?
1.38

Dear colleague, I am looking for the recorded CLint scaled of the following molecule: "O=C(O)Cc1ccccc1Nc1c(Cl)cccc1Cl"
137

If you can, please state the reported CLint scaled value of "CCO[C@@H]1O[C@H](CNC(=O)c2ccc(S(N)(=O)=O)cc2)[C@@H](O)[C@H](O)[C@H]1N" .
1.56

Reported CLint scaled for "CO[C@@H]1O[C@H](CNC(=O)c2ccc(S(N)(=O)=O)cc2)[C@@H](O)[C@H](O)[C@@H]1O" : what is it?
1.6

Values from ChEMBL document CHEMBL5030561
